Reported inhibition values follow for various compounds
biological target: Angiopoietin-1 receptor (Homo sapiens); assay: Inhibition of TEK (unknown origin) at 500 nM
Readout kind: inhibition

compound=C#Cc1cccc(Nc2ncnc3sc(-c4ccc(CO)cc4OC)cc23)c1 result=-1%
compound="C#Cc1cccc(Nc2ncnc3cc(OCCOC)c(OCCOC)cc23)c1 [ERLOTINIB]" result=5%
compound=COc1ccc(C(=O)NCCN(C)C)cc1-c1cc2c(N[C@H](C)c3ccccc3)ncnc2s1 result=-3%
compound=COc1cc(CO)ccc1-c1cc2c(Nc3ccccc3)ncnc2s1 result=8%
compound=COc1cc(CO)ccc1-c1cc2c(Nc3ccc(F)c(Cl)c3)ncnc2s1 result=11%
compound=C[C@@H](Nc1ncnc2sc(-c3ccccc3C(N)=O)cc12)c1ccccc1 result=0%

====

biological target: Proto-oncogene tyrosine-protein kinase receptor Ret (Homo sapiens) (UniProt P07949); experiment: Inhibition of RET (unknown origin) at 500 nM
Sequence (P07949 whole entry): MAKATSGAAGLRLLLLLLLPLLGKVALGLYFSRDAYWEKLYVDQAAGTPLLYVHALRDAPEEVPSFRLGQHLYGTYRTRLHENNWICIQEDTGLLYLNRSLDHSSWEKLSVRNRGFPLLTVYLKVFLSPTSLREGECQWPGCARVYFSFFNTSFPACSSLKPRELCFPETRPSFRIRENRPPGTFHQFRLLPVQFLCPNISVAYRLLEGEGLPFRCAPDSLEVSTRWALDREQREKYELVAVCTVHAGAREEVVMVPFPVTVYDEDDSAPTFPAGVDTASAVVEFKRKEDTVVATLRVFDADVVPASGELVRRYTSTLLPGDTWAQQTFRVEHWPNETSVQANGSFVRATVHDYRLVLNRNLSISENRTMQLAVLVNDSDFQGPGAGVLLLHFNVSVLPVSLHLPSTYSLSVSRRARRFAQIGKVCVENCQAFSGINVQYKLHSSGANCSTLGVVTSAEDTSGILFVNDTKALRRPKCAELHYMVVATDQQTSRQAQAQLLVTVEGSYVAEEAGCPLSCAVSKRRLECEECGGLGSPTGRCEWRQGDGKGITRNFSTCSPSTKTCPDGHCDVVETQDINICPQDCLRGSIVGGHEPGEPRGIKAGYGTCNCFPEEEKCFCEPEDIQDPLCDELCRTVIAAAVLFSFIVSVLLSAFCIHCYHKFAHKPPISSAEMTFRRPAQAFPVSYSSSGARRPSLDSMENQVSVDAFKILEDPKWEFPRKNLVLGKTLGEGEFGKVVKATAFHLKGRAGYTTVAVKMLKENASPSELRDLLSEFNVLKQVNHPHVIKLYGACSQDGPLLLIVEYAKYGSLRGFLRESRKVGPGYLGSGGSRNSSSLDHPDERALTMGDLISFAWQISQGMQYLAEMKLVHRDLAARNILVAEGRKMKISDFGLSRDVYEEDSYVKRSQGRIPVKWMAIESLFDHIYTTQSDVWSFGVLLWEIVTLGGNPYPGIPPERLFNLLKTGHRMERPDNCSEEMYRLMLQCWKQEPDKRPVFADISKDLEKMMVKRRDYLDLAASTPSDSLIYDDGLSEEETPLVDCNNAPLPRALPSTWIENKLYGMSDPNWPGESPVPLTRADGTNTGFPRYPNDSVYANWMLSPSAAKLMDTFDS
Lab note: anything with inhibition at or over 20% counts as true; the rest go in false.

molecule=COc1cc(CO)ccc1-c1cc2c(N[C@H](C)c3ccccc3)ncnc2s1 assigned_class=false
molecule=COc1cc(CO)ccc1-c1cc2c(Nc3ccc(F)c(Cl)c3)ncnc2s1 assigned_class=false
molecule=C#Cc1cccc(Nc2ncnc3sc(-c4ccc(CO)cc4OC)cc23)c1 assigned_class=false
molecule="C#Cc1cccc(Nc2ncnc3cc(OCCOC)c(OCCOC)cc23)c1 [ERLOTINIB]" assigned_class=true
molecule=COc1cc(C(N)=O)ccc1-c1cc2c(N[C@H](CO)c3ccccc3)ncnc2s1 assigned_class=false
molecule=C[C@@H](Nc1ncnc2sc(-c3ccc(C(=O)NCCN(C)C)cc3)cc12)c1ccccc1 assigned_class=false

====

// reported inhibition per item
target: Protein kinase C beta type (Homo sapiens) (UniProt P05771); assay: Inhibition of PRKCB1 (unknown origin) at 500 nM
Sequence (P05771 2-671 limits assumed): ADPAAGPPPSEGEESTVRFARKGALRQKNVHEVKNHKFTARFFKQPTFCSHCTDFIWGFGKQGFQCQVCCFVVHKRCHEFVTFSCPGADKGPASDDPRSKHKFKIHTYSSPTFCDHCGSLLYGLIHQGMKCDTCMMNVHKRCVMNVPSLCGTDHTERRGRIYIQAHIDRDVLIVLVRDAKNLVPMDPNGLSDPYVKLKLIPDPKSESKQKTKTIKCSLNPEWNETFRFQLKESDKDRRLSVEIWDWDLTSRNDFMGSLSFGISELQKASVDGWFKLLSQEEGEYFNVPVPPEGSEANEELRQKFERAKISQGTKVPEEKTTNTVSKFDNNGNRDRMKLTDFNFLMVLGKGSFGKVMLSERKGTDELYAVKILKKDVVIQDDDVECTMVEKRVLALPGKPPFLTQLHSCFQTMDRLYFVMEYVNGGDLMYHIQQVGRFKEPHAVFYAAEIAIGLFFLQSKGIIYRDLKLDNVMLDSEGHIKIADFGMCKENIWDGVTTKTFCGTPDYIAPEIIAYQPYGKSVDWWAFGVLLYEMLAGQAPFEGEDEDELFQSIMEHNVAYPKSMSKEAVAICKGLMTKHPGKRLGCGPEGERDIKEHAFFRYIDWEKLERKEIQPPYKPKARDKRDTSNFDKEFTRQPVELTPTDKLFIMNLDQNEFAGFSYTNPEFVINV
Readout kind: inhibition (%)

compound_structure_string=COc1cc(CO)ccc1-c1cc2c(N[C@H](CO)c3ccccc3)ncnc2s1 readout_kind=inhibition quantitative_readout=4
compound_structure_string=COc1cc(C(N)=O)ccc1-c1cc2c(N[C@H](CO)c3ccccc3)ncnc2s1 readout_kind=inhibition quantitative_readout=5
compound_structure_string=C#Cc1cccc(Nc2ncnc3cc(OCCOC)c(OCCOC)cc23)c1 readout_kind=inhibition quantitative_readout=-2
compound_structure_string=COc1cc(CO)ccc1-c1cc2c(N[C@H](C)c3ccccc3)ncnc2s1 readout_kind=inhibition quantitative_readout=1
compound_structure_string=COc1cc(CO)ccc1-c1cc2c(Nc3ccccc3)ncnc2s1 readout_kind=inhibition quantitative_readout=-7
compound_structure_string=C[C@@H](Nc1ncnc2sc(-c3ccccc3C(N)=O)cc12)c1ccccc1 readout_kind=inhibition quantitative_readout=3

====

molecular target: Macrophage colony-stimulating factor 1 receptor (Homo sapiens); assay: Inhibition of CSF1R (unknown origin) at 500 nM
Readout kind: inhibition (%)

compound=C[C@@H](Nc1ncnc2sc(-c3ccc(C(=O)NCCN(C)C)cc3)cc12)c1ccccc1 system="Macrophage colony-stimulating factor 1 receptor (Homo sapiens)" quantitative_readout=8
compound=COc1cc(CO)ccc1-c1cc2c(N[C@H](CO)c3ccccc3)ncnc2s1 system="Macrophage colony-stimulating factor 1 receptor (Homo sapiens)" quantitative_readout=3
compound=COc1cc(CO)ccc1-c1cc2c(N[C@H](C)c3ccccc3)ncnc2s1 system="Macrophage colony-stimulating factor 1 receptor (Homo sapiens)" quantitative_readout=2
compound=COc1cc(C(N)=O)ccc1-c1cc2c(N[C@H](CO)c3ccccc3)ncnc2s1 system="Macrophage colony-stimulating factor 1 receptor (Homo sapiens)" quantitative_readout=6
compound="C#Cc1cccc(Nc2ncnc3cc(OCCOC)c(OCCOC)cc23)c1 [ERLOTINIB]" system="Macrophage colony-stimulating factor 1 receptor (Homo sapiens)" quantitative_readout=38
compound=C[C@@H](Nc1ncnc2sc(-c3ccccc3C(N)=O)cc12)c1ccccc1 system="Macrophage colony-stimulating factor 1 receptor (Homo sapiens)" quantitative_readout=3
compound=C#Cc1cccc(Nc2ncnc3sc(-c4ccc(CO)cc4OC)cc23)c1 system="Macrophage colony-stimulating factor 1 receptor (Homo sapiens)" quantitative_readout=-1
compound=CN(C)CCNC(=O)c1ccc(-c2cc3c(N[C@H](CO)c4ccccc4)ncnc3s2)cc1 system="Macrophage colony-stimulating factor 1 receptor (Homo sapiens)" quantitative_readout=0
compound=COc1cc(CO)ccc1-c1cc2c(Nc3ccccc3)ncnc2s1 system="Macrophage colony-stimulating factor 1 receptor (Homo sapiens)" quantitative_readout=15
compound=COc1cc(CO)ccc1-c1cc2c(Nc3ccc(F)c(Cl)c3)ncnc2s1 system="Macrophage colony-stimulating factor 1 receptor (Homo sapiens)" quantitative_readout=4
compound=COc1ccc(C(=O)NCCN(C)C)cc1-c1cc2c(N[C@H](C)c3ccccc3)ncnc2s1 system="Macrophage colony-stimulating factor 1 receptor (Homo sapiens)" quantitative_readout=6
